system: P. falciparum apicoplast DNA polymerase (Pf-apPOL) (Plasmodium falciparum)
assay procedure: Fluorescence-based high-throughput DNA polymerase assay (molecular beacon), primary screen and dose-response
Format: biochemical
condition parameters: DRC-1; 90'; concentration 10
The label depends only on % inhibition Apol 90': met if it is at least 30%, not met if it is smaller.

Recorded results for 4 compounds are shown here.
compound: O=C1C(=Cc2ccncc2)Oc2c1ccc1c2CN(Cc2ccc3c(c2)OCO3)CO1
class assignment: met

compound: O=C(Cn1ccc2c(=O)[nH]ccc21)Nc1cc(F)ccc1F [Molecule 42, O=C(Cn1ccc2c1cc[nH]c2=O)Nc1cc(F)ccc1F]
class assignment: met

compound: O=c1cc(-c2ccccc2Cl)oc2c(NS(=O)(=O)c3cc(Cl)cc(Cl)c3O)ccc(O)c12
class assignment: not met

compound: COCCN(CCOC)Cc1c(O)ccc2c1OC(=Cc1cc(Br)ccc1OC)C2=O
class assignment: not met

Reported % inhibition Apol 90' reaches at least 30% for O=[N+]([O-])c1cc2c(cc1CN1CCN(c3cccc(Cl)c3)CC1)OCO2 ?
not met

###

system: P. falciparum apicoplast DNA polymerase (Pf-apPOL) (Plasmodium falciparum, UniProt Q8ILY1)
Sequence (Q8ILY1 entry or part of it): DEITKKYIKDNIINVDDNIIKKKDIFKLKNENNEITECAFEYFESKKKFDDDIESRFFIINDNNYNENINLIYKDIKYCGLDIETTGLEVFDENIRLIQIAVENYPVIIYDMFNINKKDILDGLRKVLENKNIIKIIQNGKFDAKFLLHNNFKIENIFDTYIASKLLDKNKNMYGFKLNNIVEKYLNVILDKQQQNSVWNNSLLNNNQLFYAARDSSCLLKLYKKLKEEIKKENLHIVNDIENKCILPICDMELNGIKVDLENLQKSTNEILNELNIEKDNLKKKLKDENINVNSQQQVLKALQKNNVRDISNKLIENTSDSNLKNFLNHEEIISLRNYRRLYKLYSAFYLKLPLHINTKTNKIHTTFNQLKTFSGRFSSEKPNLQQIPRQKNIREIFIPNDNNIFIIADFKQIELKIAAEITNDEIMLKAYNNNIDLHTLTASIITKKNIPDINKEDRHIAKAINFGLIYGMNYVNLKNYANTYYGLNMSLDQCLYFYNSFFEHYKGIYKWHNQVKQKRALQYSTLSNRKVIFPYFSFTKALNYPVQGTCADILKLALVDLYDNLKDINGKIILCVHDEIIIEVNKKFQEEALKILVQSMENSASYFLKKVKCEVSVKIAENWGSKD
assay procedure: Fluorescence-based high-throughput DNA polymerase assay (molecular beacon), primary screen and dose-response
Assay type: biochemical
condition parameters: DRC-2; read at 90'; concentration 10
parameter measured: % inhibition ApPOL 90' 10 (%)
Just the number in %, nothing appended.

Solved entries:
molecule: Cc1ccc(N2CCC(NC(=O)Cc3cccs3)C2=O)cc1C (stereo not drawn) [Molecule 57, O=C(NC1CCN(C1=O)c1ccc(c(c1)C)C)Cc1cccs1]
system: P. falciparum apicoplast DNA polymerase (Pf-apPOL) (Plasmodium falciparum, UniProt Q8ILY1)
% inhibition ApPOL 90' 10, %: 30
//
molecule: Cn1nc(-c2nnc(-c3ccccc3F)o2)c2c1CCN(C(=O)c1ccccc1Cl)C2 [Molecule 34]
system: P. falciparum apicoplast DNA polymerase (Pf-apPOL) (Plasmodium falciparum, UniProt Q8ILY1)
% inhibition ApPOL 90' 10, %: 36
//
molecule: COc1ccc(C2CC(c3ccc(Cl)cc3Cl)Nc3nc(N)nn32)cc1OC (stereo not drawn) [Molecule 43]
system: P. falciparum apicoplast DNA polymerase (Pf-apPOL) (Plasmodium falciparum, UniProt Q8ILY1)
% inhibition ApPOL 90' 10, %: 37
//
molecule: Cc1nc(C)c2c(n1)N(CC1CCCCC1)C(=O)CC2 [KU0218606]
system: P. falciparum apicoplast DNA polymerase (Pf-apPOL) (Plasmodium falciparum, UniProt Q8ILY1)
% inhibition ApPOL 90' 10, %: 38
//
molecule: CC(=O)OCC1=C(C(=O)[O-])N2C(=O)[C@@H](NC(=O)Cc3cccs3)[C@H]2SC1.[Na+] [Molecule 73]
system: P. falciparum apicoplast DNA polymerase (Pf-apPOL) (Plasmodium falciparum, UniProt Q8ILY1)
% inhibition ApPOL 90' 10, %: 5

What value of measured % inhibition ApPOL 90' 10 is listed for CCCc1ccc(Oc2coc3cc(OC)ccc3c2=O)cc1 [KU0193249] ?
17

###

system: UniProtKB Q8ILY1
assay procedure: Fluorescence-based high-throughput DNA polymerase assay (molecular beacon), primary screen and dose-response
Assay type: biochemical
condition parameters: DRC-2; read at 40'; concentration 2.5
From the text: The HT assay employs a molecular beacon, a stem-loop DNA template with a Cy3 dye and the Black Hole Quencher on the 3′ and 5′ ends of the DNA, respectively. Pf-apPOL concentration is based on a calculated absorptivity of ε280 = 56750 M^−1 cm^−1. […] To identify apPOL inhibitors we utilised our previously developed high-throughput DNA polymerase assay. […] The assay accurately recapitulates the kinetic behaviour of apPOL, as measured through more conventional low-throughput gel-based assays. […]
parameter measured: % inhibition Apol 40' 2.5

Solved entries:
compound: COc1ccc(/C=C/c2cc(C(=O)O)c3ccccc3n2)cc1
parameter measured: % inhibition Apol 40' 2.5
reading: 46%

compound: Cc1ccc(N2CCC(NC(=O)Cc3cccs3)C2=O)cc1C (stereo not drawn)
parameter measured: % inhibition Apol 40' 2.5
reading: -1.82%

compound: O=C(CCc1csc(NC(=O)Nc2ccccc2)n1)Nc1nc2ccccc2s1
parameter measured: % inhibition Apol 40' 2.5
reading: -3.41%

compound: O=C1CSC2=NC3=C(CCc4ccccc43)C(c3cccs3)N12 (stereo not drawn)
parameter measured: % inhibition Apol 40' 2.5
reading: 3%

compound: O=C(c1ccccc1)N1CCc2c(nc3cc(-c4ccccc4)[nH]n3c2=O)C1
parameter measured: % inhibition Apol 40' 2.5
reading: 6.57%

// switching to the query compound
Given the entry Cn1nc(-c2nnc(-c3ccccc3F)o2)c2c1CCN(C(=O)c1ccccc1Cl)C2 , what % inhibition Apol 40' 2.5 was observed with UniProtKB Q8ILY1?
22%
